# assayed target: cyclooxygenase (Bos taurus)
# Construct: endogenous in cells
# Sequence (O62664 25-600): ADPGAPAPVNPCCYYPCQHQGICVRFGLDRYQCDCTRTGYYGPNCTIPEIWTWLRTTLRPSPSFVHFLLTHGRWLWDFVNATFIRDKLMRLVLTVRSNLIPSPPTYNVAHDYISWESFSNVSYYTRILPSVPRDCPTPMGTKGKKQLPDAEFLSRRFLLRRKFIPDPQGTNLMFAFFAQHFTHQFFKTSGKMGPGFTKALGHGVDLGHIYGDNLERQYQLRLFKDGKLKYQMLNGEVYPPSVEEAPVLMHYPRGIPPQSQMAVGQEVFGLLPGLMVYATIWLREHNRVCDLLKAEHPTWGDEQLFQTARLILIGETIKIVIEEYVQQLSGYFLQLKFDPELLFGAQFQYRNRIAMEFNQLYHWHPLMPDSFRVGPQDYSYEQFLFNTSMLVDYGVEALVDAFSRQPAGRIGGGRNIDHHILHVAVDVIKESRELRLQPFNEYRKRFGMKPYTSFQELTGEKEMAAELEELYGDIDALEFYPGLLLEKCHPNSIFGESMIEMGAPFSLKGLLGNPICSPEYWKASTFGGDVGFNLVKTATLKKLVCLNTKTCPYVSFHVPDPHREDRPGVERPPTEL
# assay name: Inhibition of cyclooxygenase (CO), according to Dannhardt et al.
# Assay type: biochemical
# particulars: Table 1 column IC50 LO/CO, second value
endpoint: IC50 (nM)
// note: answer is a bare numeric in nM

IN: Return reported IC50; argument: CC1(C)Cc2c(-c3ccccc3)c(-c3ccc(Cl)s3)c(CC(=O)O)n2C1
OUT: 200

Where do these numbers come from? They come from patent US5958943A.
